- target or test system: UniProtKB P16234
- Sequence (P16234 whole entry): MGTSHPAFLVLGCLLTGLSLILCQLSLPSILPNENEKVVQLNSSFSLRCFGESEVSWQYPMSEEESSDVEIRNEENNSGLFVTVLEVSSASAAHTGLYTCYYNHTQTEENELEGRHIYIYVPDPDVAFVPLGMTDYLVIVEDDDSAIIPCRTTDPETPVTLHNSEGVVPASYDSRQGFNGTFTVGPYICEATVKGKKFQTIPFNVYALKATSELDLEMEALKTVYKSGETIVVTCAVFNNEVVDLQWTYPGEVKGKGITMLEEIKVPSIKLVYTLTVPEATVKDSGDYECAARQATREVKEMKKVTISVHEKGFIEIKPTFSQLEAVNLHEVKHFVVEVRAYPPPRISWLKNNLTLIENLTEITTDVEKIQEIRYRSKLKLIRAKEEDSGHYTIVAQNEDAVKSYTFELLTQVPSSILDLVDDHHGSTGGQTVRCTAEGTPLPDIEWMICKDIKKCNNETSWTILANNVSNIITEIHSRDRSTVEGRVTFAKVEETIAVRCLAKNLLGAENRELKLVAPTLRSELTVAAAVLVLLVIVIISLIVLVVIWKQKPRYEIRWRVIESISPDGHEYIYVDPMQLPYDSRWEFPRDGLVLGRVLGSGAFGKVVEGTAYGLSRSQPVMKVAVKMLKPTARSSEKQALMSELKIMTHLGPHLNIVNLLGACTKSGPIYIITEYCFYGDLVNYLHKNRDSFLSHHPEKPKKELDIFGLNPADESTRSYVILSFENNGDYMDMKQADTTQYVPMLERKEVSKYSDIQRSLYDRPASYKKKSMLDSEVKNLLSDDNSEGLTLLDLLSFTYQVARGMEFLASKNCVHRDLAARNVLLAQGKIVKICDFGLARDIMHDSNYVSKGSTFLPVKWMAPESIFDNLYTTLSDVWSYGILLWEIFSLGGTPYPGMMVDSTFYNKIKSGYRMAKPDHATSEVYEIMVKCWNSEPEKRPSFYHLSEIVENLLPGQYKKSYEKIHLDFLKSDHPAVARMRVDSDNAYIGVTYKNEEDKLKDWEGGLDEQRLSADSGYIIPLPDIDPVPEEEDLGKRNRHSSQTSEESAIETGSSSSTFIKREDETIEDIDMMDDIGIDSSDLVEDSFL
- protocol summary: Inhibition of Platelet-derived growth factor receptor alpha autophosphorylation in PAE cells
- Assay type: cell-based, Sus scrofa
Entries and their IC50
Your answer is read as nM, so omit the unit and give the number.

- smiles data: "CN(C)CC(=O)Oc1ccc2[nH]c(C(=O)c3cc4ccccc4[nH]3)cc2c1"
  endpoint value: 100

Query for UniProtKB P16234: what IC50 does the record show for COCC(=O)Oc1ccc2[nH]c(C(=O)c3cc4ccccc4[nH]3)cc2c1 ?
300

Give IC50 (UniProtKB P16234) of the following compound: CC(=O)Oc1ccc2[nH]c(C(=O)c3cc4ccccc4[nH]3)cc2c1
100

Given the entry O=C(c1cc2ccccc2[nH]1)c1cc2cc(O)ccc2[nH]1 , what IC50 was observed with UniProtKB P16234?
1000
